# target-desc: muscarinic receptors (3H-OXO-M site, cerebral cortex)
# test-method-notes: Radio ligand binding: displacement of muscarinic agonist 3H-Oxotremorine-M (3H-OXO-M), rat cerebral cortex membranes
# details: 2 nM 3H-OXO-M, 2mM magnesium chloride, tris buffer pH 7.7, 37° C., 30 min
Where a name gives a salt, the structure may show the parent alone.
Below, each entry is listed alongside its reported IC50.

The examples below pair each entry with its known result.
> print(dat)
                                   molecule  assay.readout  observed
1  CON=C(C)C12CCCN(C1)C2 [Example E15, oxalate salt]           IC50    290 nM
2  c1ncc(C23CCCN(C2)C3)o1 [Example E3, oxalate salt]           IC50     37 nM
3      Nc1noc(C23CCCN(C2)C3)n1 [Example E1]           IC50     11 nM
4  CCCCc1noc(C23CCCN(C2)C3)n1 [Example E8, oxalate salt]           IC50     49 nM

Exercise: Given the entry CCc1noc(C23CCCN(C2)C3)n1 [Example E5, oxalate salt] , what IC50 was observed with muscarinic receptors (3H-OXO-M site, cerebral cortex)?
Solution: 71 nM

Exercise: Continue with C/C=C/Cc1noc(C23CCCN(C2)C3)n1 [Example E11, oxalate salt]
Solution: 165 nM

Exercise: Same for Cc1noc(C23CCCN(C2)C3)n1 [Example E2, oxalate salt]
Solution: 15 nM
